# Target or system: T1, cTnI quality control product recombinant protein (human, UniProt P19429 1-210, limits assumed)
# T1 construct: the assay paragraphs only say cTnI; also called cardiac troponin I; cTnI antigen
# T1 sequence (P19429 whole entry): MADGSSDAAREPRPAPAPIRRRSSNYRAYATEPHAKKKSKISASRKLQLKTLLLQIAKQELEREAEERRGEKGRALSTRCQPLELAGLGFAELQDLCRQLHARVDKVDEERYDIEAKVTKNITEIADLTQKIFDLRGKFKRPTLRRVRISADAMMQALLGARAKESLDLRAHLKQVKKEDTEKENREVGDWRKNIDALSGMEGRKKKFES
# Test name: AMC biosensor, antibody on sensor
Assay endpoint: kon

Any idea what its kon is? The binder is WT 1-6 (antibody, V domains shown) VH: QVQLQQSGTELAKPGASVKFSCKASDYTFTSYWMYWIKQRPGQGLEWIGYLNPSSGHTEYNQRFKDKATLTADKSSSTAYMQLNSLTSEDSAVYYCARRYFGPFAMDYWGQGTSVTVSS VL: EIFLTQSPAIMSASPGEKVTMTCSASSTVSYAHWYQQKSGTSPKRWLYDSSKLASGIPVRFSGSGSGTSYSLTISSMEAEDAATYYCQNWSTNPYTFGGGTKLEIKR
25500 M⁻¹ s⁻¹

Any idea what its kon is? The binder is Mutation 1-37 (antibody, V domains shown) VH: QVQLQQSGTELAKPGASVKFSCKASGYTFSSYWMYWIKQRPGQGLEWIGYLNPSTGHTDYNQRFKDKATLTADKSSSTAYMQLNSLTSEDSAVYYCARKYFGPFGMDYWGQGTSVTVSS VL: EIFLTQSPAIMSASPGEKVTMTCSASTSVSYVHWYQQKSGTSPKRWIYDTSKLASGIPVRFSGSGSGTSYSLTISSMEAEDAATYYCQQWSTQPYTFGGGTKLEIKR
33400 M⁻¹ s⁻¹
